Entries and their IC50 values follow.
Target: Mitogen-activated protein kinase 10 (Homo sapiens, UniProt P53779)
Sequence (P53779 whole entry): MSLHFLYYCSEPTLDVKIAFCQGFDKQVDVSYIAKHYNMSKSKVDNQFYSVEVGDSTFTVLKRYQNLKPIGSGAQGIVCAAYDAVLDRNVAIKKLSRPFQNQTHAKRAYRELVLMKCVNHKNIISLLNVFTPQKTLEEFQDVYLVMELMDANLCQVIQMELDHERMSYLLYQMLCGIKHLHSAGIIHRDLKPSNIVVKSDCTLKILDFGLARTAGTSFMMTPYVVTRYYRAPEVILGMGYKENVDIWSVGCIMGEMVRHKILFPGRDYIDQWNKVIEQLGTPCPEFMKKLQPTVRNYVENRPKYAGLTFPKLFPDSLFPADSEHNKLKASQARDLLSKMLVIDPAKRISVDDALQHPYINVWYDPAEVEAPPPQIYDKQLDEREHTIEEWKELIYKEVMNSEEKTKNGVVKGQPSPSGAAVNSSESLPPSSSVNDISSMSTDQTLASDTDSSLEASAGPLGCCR
Assay: Kinase Assay
Conditions: 37 °C

compound: COc1cc(O)c2c(=O)cc(-c3ccc(O)c(OC)c3)oc2c1 [Velutin]
IC50, µM: 7.8
//
compound: O=c1cc(-c2ccc(O)c(O)c2)oc2cc(O)cc(O)c12
IC50, µM: 2.3
//
compound: COc1ccc(-c2oc3cc(O)cc(O)c3c(=O)c2O)cc1 [Kaempferide]
IC50, µM: 52.5
//
compound: O=c1c(O)c(-c2ccc(O)cc2O)oc2cc(O)cc(O)c12
IC50, µM: 26.8
//
compound: COc1ccc(-c2cc(=O)c3c(O)c(OC)c(O)c(OC)c3o2)cc1
IC50, µM: 16.3
//
compound: COc1c(O)cc2oc(-c3ccc(O)c(O)c3)cc(=O)c2c1O
IC50, µM: 15.9
//
compound: COc1cc(O)c2c(=O)c(O)c(-c3ccc(OC)c(O)c3)oc2c1
IC50, µM: 55.4
//
compound: COc1cc(O)c2c(=O)c(OC)c(-c3ccc(O)c(O)c3)oc2c1 [3',4',5-trihydroxy-3,7-dimethoxyflavone]
IC50, µM: 7.7

Each recorded value in this set is attributed to BindingDB's records for doi:10.1002/cbic.201000487.
